Reference source: patent US20160009819A1

Molecular target: T1, human [1-157]-mouse chimeric EL with C2 tag (human; mouse) (UniProt Q9WVG5)
T1 sequence: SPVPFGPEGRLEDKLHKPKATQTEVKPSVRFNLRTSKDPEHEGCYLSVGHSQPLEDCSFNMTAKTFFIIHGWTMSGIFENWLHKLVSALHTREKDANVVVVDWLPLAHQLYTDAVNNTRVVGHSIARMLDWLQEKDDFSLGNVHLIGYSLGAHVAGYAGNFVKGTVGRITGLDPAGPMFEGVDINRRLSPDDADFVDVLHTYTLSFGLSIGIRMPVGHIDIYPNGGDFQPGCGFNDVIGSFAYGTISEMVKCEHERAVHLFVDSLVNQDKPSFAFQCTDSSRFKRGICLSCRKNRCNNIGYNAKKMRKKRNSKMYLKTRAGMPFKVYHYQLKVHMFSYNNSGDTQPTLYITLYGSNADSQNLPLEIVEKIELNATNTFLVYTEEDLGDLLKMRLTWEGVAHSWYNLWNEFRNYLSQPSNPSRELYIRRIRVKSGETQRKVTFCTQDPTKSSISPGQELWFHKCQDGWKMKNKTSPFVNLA
Experiment: ELISA: antibody captured on anti-mouse IgG-Fc plate, C2-tagged EL heparin extract added, anti-C2-tag detection, A450 (Example 8)

| binder | EC50 (read off the curve) / ng/mL |
| --- | --- |
| 23H8 antibody (antibody, V domains shown) VH: EVQLQQSGPELLKPGASVKISCKASGYTFTDNTIHWVKQSHGKSLEWIGHINPYYGGTNNNEKFKDKATLTVDKSSSTAYMELRSLTSEDSAIYYCARKGIYYSSPFDYWGQGTTLTVSS VL: DIQMTQTTSSLSASLGDRVTISCRASQDINNYLNWYQQKPDGTVKLLISYTSKLHSGVPSRFSGSGSGTDYSLTISNLEREDFATYFCQQGNTLPFTFGSGTNLEIK | 4 |
| 14A1 antibody (antibody, V domains shown) VH: QIQLVQSGPELKKPGETVKISCKASGYTFTNYGMNWVKQAPGKGLKWMGWINTYSGVPTYADDFKGRFAFSLETSASTAYLQINNFKNEDTATYFCARFSYYGRHYFDYWGQGTALTASS VL: DIVLTQSPASLAVSLGQRATISCKASQSVDYDGDSYMNWYQQKPGQPPKLLIYAASNLKSGIPARFSGSGSGTDFTLNIHPVEEEDAATYYCQQTTDDPPWTFGGGTKLEIK | 7 |
